// values below are IC50; system is UniProt:P04585
Express the reported value numerically, then name its unit.

The following compounds have reported results that may help.
Asked: # lookup: IC50 of CC1c2cc(Cl)c(Cl)cc2CN1C(=O)c1cccc(CN2C(=N)NC(c3ccccc3)(c3ccccc3)C2=O)c1 (stereo not shown)
Given back: 56.9 nM

Asked: Returns the measured IC50 for the input compound. Input: CN(C)c1ncc2c(n1)CN(C(=O)c1cc(CN3C(=N)N[C@](CCCC(F)(F)F)(c4ccc(F)cc4)C3=O)ccc1C(F)(F)F)C2
Given back: 11.5 nM

Dear colleague, could you please provide IC50 for the compounds listed below?
1. CC(C)CC[C@]1(c2ccccc2)NC(=N)N(C(CC(C)C)c2ccc(C(F)(F)F)c(C(=O)N3Cc4nccnc4C3)c2)C1=O (stereo partly shown) [Compound 31]
2. CC(C)CC(c1ccc(C(F)(F)F)c(C(=O)N2CCn3c(nnc3C(F)(F)F)C2)c1)N1C(=N)N[C@](C[C@@H]2CCOC2)(c2ccc(F)cc2)C1=O (stereo partly shown) [Compound 123]

Given back:
3.13 nM
55.7 nM
